Values from patent US20070161611A1

Test system: BVDV-NADL
Test: Protection of MDBK cells from BVDV-induced cytopathicity (MTS/PMS CPE reduction assay)
Assay type: cell-based
Settings: Bovine viral diarrhea virus isolates and strains, MOI 0.03, read-out: EC50
Method: Cell proliferation was monitored using a non-radioactive MTS/PMS assay (MTS: 3-(4,5-dimethylthiazol-2-yl)-5-(3-carboxymethoxy phenyl)-2-(4-sulfophenyl)-2H-tetrazolium (Promega, Madison, Wis.)); (PMS: phenazine methosulfate (Sigma Aldrich, St. Louis, Mo.)). […] A 96-well microtiter spectrophotometer plate reader was used to measure the absorbance at 490 nm after incubation of the 96-well plate for 1 to 4 hours at 37° C. in a humidified, 5% CO2 atmosphere. […]
assay.readout: EC50 (nM)
Reply numerically in nM, unit not repeated.

In: Which measured EC50 belongs to C[C@]12CC[C@@H]3c4cc(C56CC7CC(CC(C7)C5)C6)c(O)cc4CC[C@H]3[C@@H]1CC[C@@H]2O , tested on BVDV-NADL?
Out: 460
